# assay-target: Ghrelin receptor (Homo sapiens, UniProt Q92847)
# Sequence (Q92847 whole entry): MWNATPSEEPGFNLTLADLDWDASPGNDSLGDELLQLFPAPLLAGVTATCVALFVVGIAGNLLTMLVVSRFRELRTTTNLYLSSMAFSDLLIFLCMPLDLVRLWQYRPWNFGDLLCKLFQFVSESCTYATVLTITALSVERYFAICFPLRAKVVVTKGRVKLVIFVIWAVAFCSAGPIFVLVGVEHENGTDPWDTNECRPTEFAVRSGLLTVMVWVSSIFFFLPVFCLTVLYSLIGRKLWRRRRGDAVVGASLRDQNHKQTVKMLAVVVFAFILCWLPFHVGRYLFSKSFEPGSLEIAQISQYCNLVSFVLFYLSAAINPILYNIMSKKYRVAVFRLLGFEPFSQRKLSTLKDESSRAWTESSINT
# assay-overview: Receptor Selection and Amplification Technology (R-SAT) assay
# Format: cell-based
# Design: expressed in transfected cells; host or cells: NIH3T3
# protocol-conditions: negative logarithm of ligand concentration causing 50% inhibition of constitutive receptor response; transfected NIH3T3 cells; '—' not defined (nd used separately); read-out: RSAT pIC50 (converted)
Field: IC50. Provide a value for each of the compounds that follow.
The reply should read as a number followed by its unit.

Please state, for each entry, its recorded IC50.
1. CC(=O)c1cn(CCCN2C3CCC2CC(CCc2ccccc2)C3)c2c(Cl)cccc12 (centres unmarked)
2. CC(=O)c1cn(CCCN2C3CCC2CC(Oc2ccccc2Cl)C3)c2c(C)cccc12 (centres unmarked)
3. CCc1cccc2c(C(C)=O)cn(CCCN3CCC(Oc4cccc(Cl)c4)CC3)c12
4. CC(=O)c1cn(CCCN2CCC(Oc3ccccc3Cl)CC2)c2c(Br)cccc12
5. CC(=O)c1cn(CCCN2CCC(Oc3ccccc3Cl)CC2)c2c(Cl)cccc12
6. O=C(c1cn(CCCN2C3CCC2CC(CCc2ccccc2)C3)c2ncccc12)C(F)(F)F (centres unmarked)
7. CC(=O)c1cn(CC(O)CN2CCC(Oc3ccc(Cl)cc3)CC2)c2ccccc12 (centres unmarked)
8. CC(=O)c1cn(CC(O)CN2CCC(C(=O)c3ccccc3)CC2)c2ccccc12 (centres unmarked)

12.6 nM
794 nM
1.58 nM
12.6 nM
251 nM
31.6 nM
3160 nM
6310 nM

* * *

# assay-target: Ghrelin receptor (Homo sapiens, UniProt Q92847)
# assay-overview: Receptor Selection and Amplification Technology (R-SAT) assay
# Assay type: cell-based
# Set-up: expressed in transfected cells; host or cells: NIH3T3
# protocol-conditions: read-out: RSAT Eff(%)
Binary label based on Emax with cut-off 90%: below gives y, not below gives n.

Some entries whose results are on file:
molecule=COc1cccc2c(C(C)=O)cn(CCCN3CCC4(CC3)C(=O)NCN4c3ccccc3)c12 class_label=y
molecule=COc1ccccc1C1CCN(CCCn2cc(C(=O)NCc3cccc(Cl)c3)c3cccc(OC)c32)CC1 class_label=n
molecule="CC(=O)c1cn(CC(C)CN2CCC(O)(Cc3ccccc3)CC2)c2ccccc12 (centres unmarked)" class_label=y
molecule=COc1cccc2c(C(=O)c3ccccc3)cn(CCCN3CCC(c4nc(-c5cccnc5)no4)CC3)c12 class_label=y
molecule=COc1cccc2c(C(=O)c3ccccc3)cn(CCCN3CCCN(Cc4ccccc4Cl)CC3)c12 class_label=n

Lab note: Emax threshold 90%. Does this molecule come in strictly under it? COc1cccc2c(C(=O)C3CC3)cn(CCCN3CCCC(Cc4ccccc4Cl)C3)c12 (centres unmarked)
y

Hi there! Is Emax for CC(=O)c1cn(CCCN2CCC3(CC2)CC(=O)c2ccccc2O3)c2c(Br)cccc12 below 90%, do you know?
y

Emax under 90%? Item: COc1ccccc1C1CCN(CCCn2cc(C(=O)C3CC3)c3cccc(OC)c32)CC1
n

Does COc1cccc2c(C(=O)C3CC3)cn(CCCN3CCC(Oc4cccc(Cl)c4)CC3)c12 have Emax strictly under 90%?
n

# TODO verify Emax < 90% strictly for this molecule: COc1cccc2c(C(=O)NCc3cccc(Cl)c3)cn(CCCN3CCC(Oc4ccc(Cl)cc4)CC3)c12
n

Numbers sourced from patent US20070213359A1.
